system: Metabotropic glutamate receptor 5 (Homo sapiens)
Sequence (P41594 21-1212 limits assumed): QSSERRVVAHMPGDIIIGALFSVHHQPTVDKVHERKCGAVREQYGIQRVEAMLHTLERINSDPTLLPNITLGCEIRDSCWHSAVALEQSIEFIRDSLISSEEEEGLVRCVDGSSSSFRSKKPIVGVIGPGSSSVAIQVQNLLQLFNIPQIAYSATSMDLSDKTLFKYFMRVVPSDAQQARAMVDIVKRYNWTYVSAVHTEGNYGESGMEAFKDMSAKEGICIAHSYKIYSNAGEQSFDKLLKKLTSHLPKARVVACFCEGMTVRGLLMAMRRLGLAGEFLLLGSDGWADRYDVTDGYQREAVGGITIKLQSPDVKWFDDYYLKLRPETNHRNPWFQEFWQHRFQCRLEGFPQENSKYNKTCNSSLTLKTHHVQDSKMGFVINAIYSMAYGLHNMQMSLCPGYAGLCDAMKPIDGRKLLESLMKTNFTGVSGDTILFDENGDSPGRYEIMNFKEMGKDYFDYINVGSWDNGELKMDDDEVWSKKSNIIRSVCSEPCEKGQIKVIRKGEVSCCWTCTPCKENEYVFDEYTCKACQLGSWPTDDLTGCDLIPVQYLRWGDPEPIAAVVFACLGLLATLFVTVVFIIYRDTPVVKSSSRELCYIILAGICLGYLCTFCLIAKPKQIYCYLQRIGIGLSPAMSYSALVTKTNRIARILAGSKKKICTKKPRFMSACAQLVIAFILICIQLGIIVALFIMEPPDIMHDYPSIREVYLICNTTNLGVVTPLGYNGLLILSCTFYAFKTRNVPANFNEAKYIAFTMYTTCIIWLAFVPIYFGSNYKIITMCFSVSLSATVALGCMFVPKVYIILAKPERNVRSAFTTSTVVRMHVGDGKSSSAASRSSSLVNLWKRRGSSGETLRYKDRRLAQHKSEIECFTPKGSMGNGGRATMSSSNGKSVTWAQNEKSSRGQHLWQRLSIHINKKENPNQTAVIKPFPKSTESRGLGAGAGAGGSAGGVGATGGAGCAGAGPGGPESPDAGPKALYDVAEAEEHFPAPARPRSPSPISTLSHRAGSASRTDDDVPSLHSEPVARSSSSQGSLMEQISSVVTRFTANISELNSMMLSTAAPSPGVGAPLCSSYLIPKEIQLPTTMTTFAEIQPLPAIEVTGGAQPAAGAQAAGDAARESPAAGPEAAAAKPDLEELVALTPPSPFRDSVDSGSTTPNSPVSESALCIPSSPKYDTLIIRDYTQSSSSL
test_summary: Activity at human mGluR5 expressed in CHO cells assessed as potentiation of glutamate response by FLIPR assay relative to glutamate
Assay type: cell-based
Overview of recorded Activity for various molecules

{"smiles_record": "O=C(Nc1ccc(F)cc1CN1C(=O)c2ccccc2C1=O)c1ccccn1", "Activity": 2.6}
{"smiles_record": "O=C(Nc1ccc(Cl)cc1CN1C(=O)c2ccccc2C1=O)c1ccco1", "Activity": 6.2}
{"smiles_record": "CCN(Cc1cc(Cl)ccc1NC(=O)c1ccccn1)C(=O)c1cc(Cl)cc(Cl)c1", "Activity": 5.9}
{"smiles_record": "O=C(Nc1cccc(F)c1CN1C(=O)c2ccccc2C1=O)c1ccccn1", "Activity": 0.9}
{"smiles_record": "Cc1ccc2c(c1C)C(=O)N(Cc1cc(Cl)ccc1NC(=O)c1ccccn1)C2=O", "Activity": 3.7}
{"smiles_record": "COc1ccc(NC(=O)c2ccccn2)c(CN2C(=O)c3ccccc3C2=O)c1", "Activity": 3.5}
{"smiles_record": "O=C(Nc1ccc(Cl)cc1CN1C(=O)c2ccccc2C1=O)c1ccccn1", "Activity": 6.8}
{"smiles_record": "O=C(Nc1ccccc1CN1C(=O)c2ccccc2C1=O)c1ccccn1", "Activity": 3.4}
{"smiles_record": "O=C(Nc1ccc(Br)cc1CN1C(=O)c2ccc(F)cc2C1=O)c1ccccn1", "Activity": 11.1}
{"smiles_record": "O=C(/C=C/c1cc(Cl)ccc1NC(=O)c1ccccn1)c1ccccc1", "Activity": 8}
{"smiles_record": "O=C(Nc1ccc(Cl)cc1CN1C(=O)c2ccccc2C1=O)c1cccnn1", "Activity": 0.6}
{"smiles_record": "O=C(Nc1ccc(Br)cc1CN1C(=O)c2ccccc2C1=O)c1ccccn1", "Activity": 7.6}
{"smiles_record": "COc1cccc(C(=O)Nc2ccc(Cl)cc2CN2C(=O)c3ccccc3C2=O)c1", "Activity": 1.6}
{"smiles_record": "O=C(Nc1ccc(Cl)cc1CN1C(=O)c2ccccc2C1=O)c1ccccc1[N+](=O)[O-]", "Activity": 2.9}
{"smiles_record": "Cc1ccc2c(c1C)C(=O)N(Cc1cc(Br)ccc1NC(=O)c1ccccn1)C2=O", "Activity": 0.6}
{"smiles_record": "O=C(Nc1ccc(Cl)cc1CN1C(=O)c2ccccc2C1=O)c1ccccc1C(F)(F)F", "Activity": 3.5}
{"smiles_record": "O=C(Nc1ccc(Cl)cc1CN1C(=O)c2ccccc2C1=O)c1ncccn1", "Activity": 1.3}
{"smiles_record": "O=C(Nc1ccc(Cl)cc1CN1C(=O)c2ccccc2C1=O)c1ccccc1O", "Activity": 7.1}

Reference source: ChEMBL document CHEMBL1139092
